This collection of values is drawn from patent US5041549A.

Here's what we have: pIC50 numbers for M2-receptor of rat cerebellum (Rattus norvegicus, UniProt P10980).
Value format note: pIC50 is -log10 of concentration (mol/L); just state the number.

Field request: pIC50 | item: O=C1CCCN1CC#CCN1CCCC1 [Oxotremorine, reference compound] 8.31

CC1SC2(CCN(C)CC2)CC12SCCS2 (stereo not drawn) [Example 22] ? 6.15

CCC1OC2(CCN(C)CC2)CC12OCCS2 (stereo not drawn) [Example 29] ? 6.19

C=C1CC2(CCN(C)CC2)OC1C (stereo not drawn) [Example 5] ? 4.60

CC1OC2(CN3CCC2CC3)CC12SCCS2 (single isomer, unassigned) [Example 33] ? 6.51

C=C1CC2(CCN(C)CC2)OC1CC (stereo not drawn) [Example 36] ? 5.05
